# METHOD_NOTES: blockers of RIG-like receptor reporter activation – cell-based, Sendai virus stimulus, luciferase, 10K MLSCN set, TLR/RLR signaling modifier project, primary screen (AID 602276);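 also: firefly luciferase from ISG56 promoter only with Renilla not read in this screen; 0% = Sendai virus plus DMSO and 100% = medium plus DMSO without virus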
# MEASUREMENT_CONDITIONS: HEK293 RL24 IRF3 luciferase reporter, at 10 µM, stronger effect = higher value
Provide the reported inhibition of each item.
Give bare numbers, in %.

See these solved cases before continuing.
Prompt line: Quick one: give measured inhibition for "COc1cc(C2Nc3cccc4cccc(c34)N2)cc(OC)c1O"
Response line: 3.04

Prompt line: Quick one: give measured inhibition for "COCC(=O)N(Cc1nc2ccccc2c(=O)[nH]1)Cc1cccs1"
Response line: 20.3

Prompt line: Quick one: give measured inhibition for "CCS(=O)(=O)c1nc2ccccc2n1CC(=O)N1CCOCC1"
Response line: 16.1

Prompt line: Quick one: give measured inhibition for "O=C(CCCCCn1c(SCc2ccncc2)nc2ccccc2c1=O)NCc1ccco1"
Response line: 8.7

For each listed entry, give its inhibition.
1. O=c1c2c(nc3nc(COc4ccccc4)[nH]n13)CCC2
2. Cc1nc2ccccc2c2oc(C(=O)NCc3ccccn3)cc12
3. CC1c2nc3ccccc3n2C(CC(=O)NCc2ccccn2)C(=O)N1Cc1ccccc1 (stereo unspecified)
4. CCOc1ccc2[nH]c(C)cc(=O)c2c1
5. O=C1C2CCCN2C(c2ccc(Cl)cc2)N1c1nccs1 (stereo unspecified)
6. O=C(c1ccc(F)cc1)C1CCN(CCn2c(=O)[nH]c3ccccc3c2=O)CC1
7. Cc1ccc2cc(CN(CC(C)C)C(=O)C3CCCO3)c(=O)[nH]c2c1 (stereo unspecified)

Response line:
15.2
-2.75
15
-6.31
11.3
0.811
3.89

// provenance: PubChem BioAssay
